Each entry below carries its reported %inh 5-HT6 exp_2.
# STUDY TARGET: human 5-HT6 receptor (Homo sapiens, UniProt P50406)
# Construct: expressed in transfected cells
# Sequence (P50406 whole entry): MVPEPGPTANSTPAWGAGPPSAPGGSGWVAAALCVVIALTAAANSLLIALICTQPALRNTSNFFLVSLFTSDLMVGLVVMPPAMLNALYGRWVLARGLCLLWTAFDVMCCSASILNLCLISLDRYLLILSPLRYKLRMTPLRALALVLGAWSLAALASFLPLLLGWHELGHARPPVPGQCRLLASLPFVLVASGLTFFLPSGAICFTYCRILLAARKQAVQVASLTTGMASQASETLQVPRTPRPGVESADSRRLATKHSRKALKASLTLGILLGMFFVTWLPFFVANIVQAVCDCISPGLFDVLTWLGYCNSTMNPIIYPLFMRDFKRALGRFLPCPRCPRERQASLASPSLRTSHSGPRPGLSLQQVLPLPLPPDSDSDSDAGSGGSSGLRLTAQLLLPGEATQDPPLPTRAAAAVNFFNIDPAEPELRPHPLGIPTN
# ASSAY SUMMARY: GPCR radioligand binding assay, [3H]-LSD displacement, HEK293 membranes
# ASSAY CONDITIONS: 5-HT6; replicate exp_2

Completed entries (count: 5):
I'd like to know its %inh 5-HT6 exp_2. The compound in question is c1ccc(-c2ccncc2)cc1 [C2]
40%

I'd like to know its %inh 5-HT6 exp_2. The compound in question is Cc1cc(-c2ccccc2)n[nH]1 [A8]
52%

I'd like to know its %inh 5-HT6 exp_2. The compound in question is O=C1CC(CSc2ccc(Cl)cc2)=NN1 [H8]
14%

I'd like to know its %inh 5-HT6 exp_2. The compound in question is N#Cc1ccc(C(=O)N2CCOCC2)cc1 [E10]
41%

I'd like to know its %inh 5-HT6 exp_2. The compound in question is O=C1CSC(Nc2ccc(F)cc2)=N1 [H10]
35%

Continuing:
I'd like to know its %inh 5-HT6 exp_2. The compound in question is CS(=O)(=O)c1ccc(N2CCNCC2)cc1 [B1]
28%

---

# STUDY TARGET: human 5-HT6 receptor (Homo sapiens, UniProt P50406)
# Construct: expressed in transfected cells
# ASSAY SUMMARY: GPCR radioligand binding assay, [3H]-LSD displacement, HEK293 membranes
# ASSAY CONDITIONS: 10 µM
REPORTED METRIC: 5-HT6 % Inhibition by plate position (%)
Provide only the numeric value, understood in %.

Completed entries (count: 3):
I'd like to know its 5-HT6 % Inhibition by plate position. The molecule in question is CCCN1C(=O)CC(=O)NC1=S
49

I'd like to know its 5-HT6 % Inhibition by plate position. The molecule in question is CC(=O)c1ccc2c(c1)CCCN2
9

I'd like to know its 5-HT6 % Inhibition by plate position. The molecule in question is N#CCCN1CCc2ccccc21
23

Then there is this molecule:
I'd like to know its 5-HT6 % Inhibition by plate position. The molecule in question is c1ccc(-c2ccncc2)cc1
36

---

# STUDY TARGET: human 5-HT6 receptor (Homo sapiens)
# Construct: expressed in transfected cells
# ASSAY SUMMARY: GPCR radioligand binding assay, [3H]-LSD displacement, HEK293 membranes
# ASSAY CONDITIONS: 5-HT6; average, values below 0 and above 100% were set as 0 and 100
REPORTED METRIC: %inh 5-HT6 corrected*
Write the quantity with the unit trailing the number.

Completed entries (count: 3):
I'd like to know its %inh 5-HT6 corrected*. The compound in question is Cn1c(CO)nc2ccccc21
37%

I'd like to know its %inh 5-HT6 corrected*. The compound in question is N[C@H]1c2ccccc2C[C@H]1CO
25%

I'd like to know its %inh 5-HT6 corrected*. The compound in question is c1ccc(-c2ccncc2)cc1
36%

Continuing:
I'd like to know its %inh 5-HT6 corrected*. The compound in question is O=C1CCCc2occc21
34%

I'd like to know its %inh 5-HT6 corrected*. The compound in question is N#CCCN1CCc2ccccc21
23%

I'd like to know its %inh 5-HT6 corrected*. The compound in question is C1=C[C@H]2O[C@@H]1c1ccccc12
46%

I'd like to know its %inh 5-HT6 corrected*. The compound in question is COc1ccc(CN2CCNCC2)cc1F
41%

---

# STUDY TARGET: human 5-HT6 receptor (Homo sapiens, UniProt P50406)
# Construct: expressed in transfected cells
# ASSAY SUMMARY: GPCR radioligand binding assay, [3H]-LSD displacement, HEK293 membranes
# ASSAY CONDITIONS: 5-HT6; average of exp_1 and exp_2
Each entry below carries its reported %inh 5-HT6 average.
Provide only the numeric value, understood in %.

Completed entries (count: 2):
I'd like to know its %inh 5-HT6 average. The molecule in question is Cc1ccc(C)n1Cc1ccccc1Cl [D6]
26

I'd like to know its %inh 5-HT6 average. The molecule in question is C1=C[C@H]2O[C@@H]1c1ccccc12 [C11]
46

Continuing:
I'd like to know its %inh 5-HT6 average. The molecule in question is Cc1nc(-c2ccccc2)cs1 [A7]
50

I'd like to know its %inh 5-HT6 average. The molecule in question is O=C1CC(CSc2ccc(Cl)cc2)=NN1 [H8]
12

---

Each entry below carries its reported %inh 5-HT6 exp_1.
# STUDY TARGET: human 5-HT6 receptor (Homo sapiens, UniProt P50406)
# Construct: expressed in transfected cells
# ASSAY SUMMARY: GPCR radioligand binding assay, [3H]-LSD displacement, HEK293 membranes
# ASSAY CONDITIONS: 5-HT6; replicate exp_1
Write the quantity with the unit trailing the number.

Completed entries (count: 6):
I'd like to know its %inh 5-HT6 exp_1. The compound in question is O=C(Nc1ccccc1)C1CC1
40%

I'd like to know its %inh 5-HT6 exp_1. The compound in question is CC1C(=O)NC(=O)N1c1ccc(Cl)cc1 (stereo not shown)
41%

I'd like to know its %inh 5-HT6 exp_1. The compound in question is COc1ccccc1N1CCNCC1
80%

I'd like to know its %inh 5-HT6 exp_1. The compound in question is CS(=O)(=O)c1ccc(OC(F)(F)F)cc1
0%

I'd like to know its %inh 5-HT6 exp_1. The compound in question is Cc1cc(-c2ccccc2)n[nH]1
44%

I'd like to know its %inh 5-HT6 exp_1. The compound in question is CCc1ccc(NC2=NCCCS2)cc1 [D2]
19%

Continuing:
I'd like to know its %inh 5-HT6 exp_1. The compound in question is O=c1[nH]ncc2c1oc1ccccc12
18%

I'd like to know its %inh 5-HT6 exp_1. The compound in question is N#Cc1ccc(C(=O)N2CCOCC2)cc1
33%

I'd like to know its %inh 5-HT6 exp_1. The compound in question is FC1(F)CNCC(F)(F)O1
40%

I'd like to know its %inh 5-HT6 exp_1. The compound in question is c1cnc2c(c1)NCCC2
28%

I'd like to know its %inh 5-HT6 exp_1. The compound in question is Cc1cnc(C(F)(F)F)cn1
32%

I'd like to know its %inh 5-HT6 exp_1. The compound in question is O=C(NC1CC1)c1ccccc1O
28%

---

# STUDY TARGET: human 5-HT6 receptor (Homo sapiens)
# Construct: expressed in transfected cells
# ASSAY SUMMARY: GPCR radioligand binding assay, [3H]-LSD displacement, HEK293 membranes
# ASSAY CONDITIONS: 5-HT6; replicate exp_2
REPORTED METRIC: %inh 5-HT6 exp_2 (%)
Provide only the numeric value, understood in %.

I'd like to know its %inh 5-HT6 exp_2. The compound in question is O=C(c1ccccc1)N1CCC(CO)CC1
36

I'd like to know its %inh 5-HT6 exp_2. The compound in question is c1ccc2oc(C3CCCNC3)nc2c1 (stereo not shown)
28

I'd like to know its %inh 5-HT6 exp_2. The compound in question is COc1ccccc1C1CCNCC1
59

---

# STUDY TARGET: human 5-HT6 receptor (Homo sapiens, UniProt P50406)
# Construct: expressed in transfected cells
# ASSAY SUMMARY: GPCR radioligand binding assay, [3H]-LSD displacement, HEK293 membranes
# ASSAY CONDITIONS: 5-HT6; replicate exp_1
Use Met when the recorded %inh 5-HT6 exp_1 is no lower than 30%; use Not met when it is lower.

Look over these answered cases.
Tell me whether %inh 5-HT6 exp_1 is at least 30% here: O=C1CSC(Nc2ccc(F)cc2)=N1 [H10]
Met

Tell me whether %inh 5-HT6 exp_1 is at least 30% here: CC(CN)N1CCc2sccc2C1 (stereo not shown) [F9]
Not met

Tell me whether %inh 5-HT6 exp_1 is at least 30% here: CC(=O)c1ccc2c(c1)CCCN2 [C7]
Not met

Tell me whether %inh 5-HT6 exp_1 is at least 30% here: Oc1ccc(-n2cncn2)cc1 [H5]
Met

Tell me whether %inh 5-HT6 exp_1 is at least 30% here: Nc1ccc(-c2ccccc2)cc1C(=O)O [G9]
Met

Continuing:
Tell me whether %inh 5-HT6 exp_1 is at least 30% here: COc1ccccc1C1CCNCC1 [A11]
Met

Tell me whether %inh 5-HT6 exp_1 is at least 30% here: CN1CC(=O)NC1=O [B10]
Met

Tell me whether %inh 5-HT6 exp_1 is at least 30% here: O=C(O)CC1CCC(=O)N1 (stereo not shown) [H2]
Not met

Tell me whether %inh 5-HT6 exp_1 is at least 30% here: Oc1ccc(C2CCNCC2)cc1 [E11]
Met

Tell me whether %inh 5-HT6 exp_1 is at least 30% here: C1=C[C@H]2O[C@@H]1c1ccccc12 [C11]
Met

Tell me whether %inh 5-HT6 exp_1 is at least 30% here: O=C1NC(=O)C2(CCc3ccccc32)N1 (stereo not shown) [B7]
Met

Tell me whether %inh 5-HT6 exp_1 is at least 30% here: NCC1(c2ccccc2)CCOCC1 [F10]
Not met

Tell me whether %inh 5-HT6 exp_1 is at least 30% here: Cc1ccc(-c2ccc(O)cc2)cc1 [D7]
Met

Tell me whether %inh 5-HT6 exp_1 is at least 30% here: Fc1ccc2c(C3CCNCC3)c[nH]c2c1 [H4]
Met

Tell me whether %inh 5-HT6 exp_1 is at least 30% here: O=C(CN1CCCC1)c1ccccc1Cl [G10]
Not met

Tell me whether %inh 5-HT6 exp_1 is at least 30% here: O=C1CCN(c2ccncc2)CC1 [G7]
Not met

Tell me whether %inh 5-HT6 exp_1 is at least 30% here: Cc1nccn1Cc1cccc(C#N)c1 [F8]
Met

Tell me whether %inh 5-HT6 exp_1 is at least 30% here: Nc1ccc(SC(F)F)cc1 [D1]
Met
